assay type: physicochemical; conditions: 1-octanol, 313.15 K
Answer class 0 if mole fraction solubility (x) is under 3 x · 10^4, and class 1 if it is 3 x · 10^4 or more.

These recorded examples may help you get a feel for the data.
{"structure.notation": "Cc1ccc2c(c1)c1c(n2CCc2n[nH]c(=S)n2C)CCN(C)C1", "assigned.category": "class 0"}
{"structure.notation": "CN1CCc2c(c3cc(F)ccc3n2CCc2n[nH]c(=S)n2C)C1", "assigned.category": "class 1"}
{"structure.notation": "CN1CCc2c(c3ccccc3n2CCc2n[nH]c(=S)n2C)C1", "assigned.category": "class 1"}

I'd appreciate it if you could say whether COc1ccc2c(c1)c1c(n2CCc2n[nH]c(=S)n2C)CCN(C)C1 has mole fraction solubility (x) at least equal to 3 x · 10^4.
class 0
